List of Ki tested on Corticotropin-releasing factor receptor 1 (Homo sapiens, UniProt P34998).
Sequence (P34998 whole entry): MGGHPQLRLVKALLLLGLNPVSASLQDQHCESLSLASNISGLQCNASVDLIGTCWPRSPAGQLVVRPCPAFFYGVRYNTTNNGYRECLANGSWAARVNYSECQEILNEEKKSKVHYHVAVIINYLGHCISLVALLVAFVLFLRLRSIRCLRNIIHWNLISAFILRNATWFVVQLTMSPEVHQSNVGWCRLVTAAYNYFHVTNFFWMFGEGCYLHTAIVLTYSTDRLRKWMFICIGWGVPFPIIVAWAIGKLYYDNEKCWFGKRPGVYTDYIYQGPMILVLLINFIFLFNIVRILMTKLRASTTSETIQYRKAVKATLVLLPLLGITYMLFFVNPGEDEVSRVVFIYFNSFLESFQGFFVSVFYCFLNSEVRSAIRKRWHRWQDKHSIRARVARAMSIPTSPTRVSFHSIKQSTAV
MEASURED QUANTITY: Ki (µM)

>  <GIVEN SMILES>
CCCN(Cc1sc(Nc2ccc(C(C)C)cc2Br)nc1C(F)(F)F)CC1CC1

>  <MEASUREMENT>
2.9

$$$$

A: CCCN(CC1CC1)C(=O)c1sc(Nc2c(Cl)cc(Cl)cc2Cl)nc1C(F)(F)F
B: CCCN(Cc1sc(Nc2c(Br)cc(C)cc2Br)nc1C(F)(F)F)CC1CC1
C: CCCN(CCC)C(=O)c1sc(Nc2c(Cl)cc(Cl)cc2Cl)nc1C
D: CCCN(Cc1sc(N(CC)c2ccc(C(C)C)cc2Br)nc1C(F)(F)F)CC1CC1
E: CCCN(Cc1sc(Nc2c(C)cc(Cl)cc2Cl)nc1C(F)(F)F)CC1CC1
Query: Sort the 5 molecules by Ki; largest first, smallest last. The labels, placed in the requested order, form the answer.
Reply: A, C, D, B, E
(A: 31 µM, C: 0.82 µM, D: 0.056 µM, B: 0.028 µM, E: 0.016 µM)
